List of Competition Binding, 1st exp. (rank) values.
# TARGET_ENTITY: Programmed Death 1 (PD-1) (UniProt Q15116 25-288, limits assumed)
# Sequence (Q15116 25-288 limits assumed): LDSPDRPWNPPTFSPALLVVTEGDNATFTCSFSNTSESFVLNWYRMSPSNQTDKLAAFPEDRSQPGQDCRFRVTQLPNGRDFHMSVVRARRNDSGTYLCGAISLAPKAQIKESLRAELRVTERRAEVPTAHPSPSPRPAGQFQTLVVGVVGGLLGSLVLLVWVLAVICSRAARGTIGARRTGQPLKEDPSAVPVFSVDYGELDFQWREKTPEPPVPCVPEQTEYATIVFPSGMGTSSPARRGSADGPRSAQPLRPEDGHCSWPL
# PROCEDURE_SUMMARY: rank of the clone by competition binding against labelled murine mAb BAP049, first experiment (legends paragraph 52)

{"BINDER": "BAP049-hum03 (antibody, human IgG4 S228P, kappa, V domains shown, also called clone 3) VH: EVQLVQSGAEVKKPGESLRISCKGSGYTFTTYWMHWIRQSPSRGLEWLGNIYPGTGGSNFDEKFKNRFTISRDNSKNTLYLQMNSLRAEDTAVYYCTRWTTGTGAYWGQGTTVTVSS VL: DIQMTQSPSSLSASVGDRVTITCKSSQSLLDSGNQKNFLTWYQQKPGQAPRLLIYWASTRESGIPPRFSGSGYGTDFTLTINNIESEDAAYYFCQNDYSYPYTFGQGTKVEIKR", "Competition Binding, 1st exp. (rank)": 8}
{"BINDER": "BAP049-hum12 (antibody, human IgG4 S228P, kappa, V domains shown, also called clone 12) VH: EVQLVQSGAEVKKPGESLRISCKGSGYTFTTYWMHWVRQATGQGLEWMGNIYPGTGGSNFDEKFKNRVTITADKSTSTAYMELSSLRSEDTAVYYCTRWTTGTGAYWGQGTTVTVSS VL: DIQMTQSPSSLSASVGDRVTITCKSSQSLLDSGNQKNFLTWYLQKPGQSPQLLIYWASTRESGVPSRFSGSGSGTDFTFTISSLEAEDAATYYCQNDYSYPYTFGQGTKVEIKR", "Competition Binding, 1st exp. (rank)": 8}
{"BINDER": "BAP049-hum02 (antibody, human IgG4 S228P, kappa, V domains shown, also called clone 2) VH: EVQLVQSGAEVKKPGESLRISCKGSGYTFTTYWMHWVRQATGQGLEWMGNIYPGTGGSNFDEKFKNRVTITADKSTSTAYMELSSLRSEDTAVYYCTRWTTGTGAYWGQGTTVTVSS VL: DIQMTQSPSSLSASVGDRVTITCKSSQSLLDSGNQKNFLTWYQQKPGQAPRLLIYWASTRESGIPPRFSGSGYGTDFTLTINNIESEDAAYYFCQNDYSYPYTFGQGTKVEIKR", "Competition Binding, 1st exp. (rank)": 3}
